test: Growth inhibition of human UO31 cells after 48 hrs by sulforhodamine B assay; assay type: functional; details: UO-31, 48 h
Would you mind telling me the reported GI50 of each entry?
Give the number; µM is assumed, so skip it.

Ask | Given the entry COc1cc(C2C(C#N)=C(N)Oc3cc(O)ccc32)cc(OC)c1OC (centres undefined) , report its measured GI50.
Reply | 2.8

Ask | Next record, please: COc1cccc(C2C(C#N)=C(N)Oc3cc(OC)ccc32)c1 (centres undefined)
Reply | 0.0572

Ask | Next record, please: COc1cccc(C2C(C#N)=C(N)Oc3cc4c(cc32)OCO4)c1 (centres undefined)
Reply | 0.0589

Ask | Next record, please: COc1ccc2c(c1)OC(N)=C(C#N)C2c1cc(OC)c(OC)c(OC)c1 (racemic)
Reply | 1.57
